System: MS2 coat protein
Assay: apparent KD of MS2 coat protein; higher = weaker reporter binding
Conditions: Eterna round: R107; input ligand: tryptophan 2.4 mM
measurement kind: apparent KD of MS2 coat protein (µM)

sequence input	value reported
AACAUGAGGAUCACCCAUGUCUGAACUGAAGGAGCGCUAAAUAAGGCAGGUAGGUCGCGGAAUUUUGUGUACAUAUGUAUAUGGG [9.H]	0.0238
AAGGGAGAAUCAGAUACCAGAGUAAGAUGGCAUGAUAAUUACAUGAGGAUCACCCAUGUACUCCCUUGGCAGCUGACAAUAUAUU [Exclusion Theophylline B GF 18]	0.0103
ACAUGAGGAUCACCCAUGUACAUGAGGGAAGGAGCGGUACAUGUGCCAGGUAGGUCGCCCAACAGCAUCAGCCAUGUACAACGGA [xxbmullin]	0.0523
UCGGGCAGAGCGGCCGCCACUGUUUGGCGUGCGGAUGAAGGAACAUGAGGAUCACCCAUGUUGAUUAGGACCGGGCUUGCGGAGA [kklmullin]	0.0167
GCUGCCAUACGAAGGAGCGCUGUUGUAGUGAGGCGAACAUGAGGAUCACCCAUGUGGCAGCAGCAGGUAGGUCGCGUAUGGCAGC [EAB #13]	0.026
AAAGCCUUGCCCGGUGUUCCGAAAGUGGAAGGAGCGCACAUUGGUGCAGGUAGGUCGCCACAUGAGGAUCACCCAUGUCUAGGCU [Isbeat]	0.0113

----------
System: MS2 coat protein
Experiment: apparent KD of MS2 coat protein; designed switch direction (-1 OFF switch, 1 ON switch): 1; higher = weaker reporter binding
Conditions: Eterna round: R95; input ligand: FMN 200 uM

sequence input	apparent KD of MS2 coat protein / nM
CGUCCAGCCUGAGCUGGACAAAAGCAUGUACAUGAGGAUCACCCAUGUUCAUGUACAAGCUUUUUGCUCGUCUUACU [salish99_208a_r3_092x] (puzzle: Sensor for hsa-mir-208a)	590
AUAAAACAUGAGGAUCACCCAUGUCAACAAAGUCGAGGAUAUGGGCAAAUAAAAUAAGAACCAGAAGGUGAAUAAU [salish99_ss1_r3_032] (puzzle: Same State 1)	131
AUUUAACAAGCUUUUUGCUCGUCUUAUAAACAUGAGGAUCACCCAUGUAAUAGCGUGAGAGUAAAUAAUUUAAUAAU [JMF 98] (puzzle: Sensor for hsa-mir-208a)	12.9
CGAUGAAACUAAGGAAGAAGAGUUGAAGUACAUGAGGAUCACCCAUGUCAGAGCUUUUUGCUCGUCAUGAACAGGAA [JR_SHM208a_Sub005] (puzzle: Sensor for hsa-mir-208a)	51.9
UCUUGGUUUUUGCUCGUUUUUUGUGUUGAACAUGAGGAUCACCCAUGUAUUGUACGGUCCAGUUUAGUAGUGGUCCG [JMF 32] (puzzle: Sensor for hsa-mir-208a)	26

----------
System: K4 kissing-loop RNA reporter;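 note: bound reporter read as fluorescence of individual clusters on recovered sequencing chips by microscopy, with normalized cluster intensities fitted with a binding model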
Assay: apparent KD of K4 kissing-loop reporter; higher = weaker reporter binding
Settings: Eterna round: R107; input ligand: FMN 200 uM
Catalogue of apparent KD of K4 kissing-loop reporter readings, one per entry.

sequence input	assayed target	apparent KD of K4 kissing-loop reporter [nM]
GGCAUGGUGGCAGGAUAUCCUAAUAGAGUGAUGUUCUAGCCCUCGUAGGCGAAAGCCUACGAGGGCGGAGAAGGGCCACCAUGCC	K4 kissing-loop RNA reporter	263
UUUAUAUAGUCGGCCGCCACUGGAUUAAUAUUUGUAUAAUCUAGAUCAAAGUGAUGUUUUGAGUCCAGGACCGGGACAUUUGUUA [JR_ExcTryptoB_Sub006]	K4 kissing-loop RNA reporter	539
GUUCUGAUGGAAACAUCGGAACAUACUGAUACCAGUAUCGAUAGAUACCCUUGGCAGCAGAAUCAGUAAUAACGAGUGAUGUUCG [Ex Theophylline A K4 2]	K4 kissing-loop RNA reporter	275
GCCAGUGCGCGAAGGAGCGCCGUGACAGGUUACUGCCUUGGGCAGUGAUGUUGCUCAAUCUGGCAGGUAGGUCGCGUGCACUGGC	K4 kissing-loop RNA reporter	212
AGUGAACGAGCGGCCGCCACUAAAUGAGUGAUGUUCGUGAGUAGUGCUGUUGUCAUGAUUGUUUUUAGGACCGGGUUCGAUGUUG [popplmullin]	K4 kissing-loop RNA reporter	719
UCCUGCAAUCUGCCACGAAAGUGGGUUGAUACCAGAGUCGAAAGACUCCCUUGGCAGCGAGUGAUGUUCGUUGCAGGUGUUUAAA [MatMod 11 - Jieux - Exclusion - Theophylline A]	K4 kissing-loop RNA reporter	197
UGACAUUGCUCAGAUACCAGACACGAGGAUCACCCGUGUGCCAAAACGUACUAAAUAAGUGUCCCUUGGCAGCUGAGCAAUGUCU [TheoBX 13]	K4 kissing-loop RNA reporter	78.1
UCCUUUGUUGCCAGUGAUGUUGGACAGGAAGGAGCGGGCAUAAGCCCAGGUAGGUCGCCUGUCAACUUUCUUAUAGCCCUAAGGU [KL-XArg-A16]	K4 kissing-loop RNA reporter	343
UGUCAUGGAAACAUGAACGUUGAAAUAAAUCGAGGACCGGUACGGCCGCCACUCGUAUAGCGGUCAGUGAUGUUGACUGUAAUAA [KL-SSTryp-A form2 sub9]	K4 kissing-loop RNA reporter	94.9
AAGUAAUGUAUAGAUUAUAUACAUUAAACAGAGGAUAUGCAUUAUUGCAGAAGGCUGAAUGCAGUGAUGUUGCAAUAAUUAUUUA [JR_SSFMNA_Sub002]	K4 kissing-loop RNA reporter	53.1
UGACUGGACUGAAGGAGCGGGCGAGACAAAGUCUCGAACUGCUAGUGAUGUUAGCAAAUAACCCAGGUAGGUCGCAGUCUAGUCU	K4 kissing-loop RNA reporter	122
UAUGAAGGUGGAGGAUAUUGAUUGAACCUUGGUCAGGAGUGAUGUUCCGGGAAGCCUUGGGUUCAUCGAGAAGGCCAAGGAUAGU [Extra 2]	K4 kissing-loop RNA reporter	139
